test_protocol: MMV: Cytotoxicity against human fibroblasts (MRC-5) cells.
measurement_setup: MRC-5 cells (human fibroblasts)
property_measured: pIC50
API: returns pIC50 as number; meaning -log10 of concentration in mol/L.

pIC50 in this record for `Cc1ccc(Cl)cc1N1CCN(CCCNC(=O)C2CCN(c3nc4ccccc4[nH]3)CC2)CC1` : 4.84

pIC50 in this record for `CCOc1ccc2nc(C)cc(Nc3ccc(N(C)C)cc3)c2c1` : 4.73

pIC50 in this record for Oc1c(C(Nc2ccccn2)c2cccc(Oc3ccccc3)c2)ccc2cccnc12 (stereo unspecified) : 5.41

====

test_protocol: MMV: Cytotoxicity against human fibroblasts (MRC-5) cells.
measurement_setup: MRC-5 cells (human fibroblasts)
pIC50: −log10 of the molar value.
property_measured: pIC50

pIC50 in this record for CCOc1cc2c(cc1OCC)C(c1cc(Cl)ccc1O)NCC2 (stereo not given) : < 4.49

pIC50 in this record for CC1CN(C(=O)c2sc3ccccc3c2Cl)CC(C)O1 (stereo not given) : < 4.49

pIC50 in this record for `O=C(Nc1cccc(C(F)(F)F)c1)c1cc(Cl)ccc1O` : 6.62

pIC50 in this record for `COc1ccc(C(=O)Nc2ccc3nc(N4CCCCC4)cc(C)c3c2)cc1OC` : 4.79

pIC50 in this record for OC(CNC1CCCC1)Cn1c2ccccc2c2ccccc21 (stereo not given) : 4.73

pIC50 in this record for `Cc1cc(NC(=O)c2cccc(C(F)(F)F)c2)n(-c2nc(-c3ccc4c(c3)OCO4)cs2)n1` : < 4.49

pIC50 in this record for `Cc1ccc2cc3c(N)c4c(C)ccc(C)c4nc3nc2c1` : 4.94

pIC50 in this record for `O=C(Nc1ccc(C23CC4CC(CC(c5ccccc5)(C4)C2)C3)cc1)c1cccs1` : < 4.49

pIC50 in this record for `COCCn1c(C)nc2ccccc2c1=O` : < 4.49

pIC50 in this record for CC(NCc1ccccc1)c1cc(Cl)ccc1O (stereo not given) : < 4.49

pIC50 in this record for CCN1CCCC1CNc1[nH]cnc2c3cc(Cl)ccc3nc1-2 (stereo not given) : < 4.49

pIC50 in this record for `CN(C)CCNc1cc(-c2ccccc2)nc2ccccc12` : 4.60

pIC50 in this record for CCCCCCOC(=O)C1=C(C)NC(=O)NC1c1ccccc1F (stereo not given) : < 4.49

pIC50 in this record for `COc1cccc(Nc2nc(N)c3ccccc3n2)c1` : < 4.49

pIC50 in this record for `Oc1ccccc1CNCC12CC3CC(CC(C3)C1)C2` : < 4.49

pIC50 in this record for `COc1ccc(CCn2c(=N)c(C(=O)NCc3cccnc3)cc3c(=O)n4cccc(C)c4nc32)cc1` : < 4.49

pIC50 in this record for CCOc1cc(Cl)c(C(C)NC(=O)c2cccc(OC)c2)cc1OCC (stereo not given) : 5.18

pIC50 in this record for O=C(O)C1Cc2c([nH]c3ccccc23)C(c2ccc(Cl)cc2Cl)N1 (stereo not given) : < 4.49

pIC50 in this record for `Cc1nc2ccccc2c(O)c1CC=C(Cl)Cl` : < 4.49

pIC50 in this record for `c1ccc(/C2=N/c3ccccc3/N=C(/c3ccccc3)c3ccccc32)cc1` : < 4.49

pIC50 in this record for `O=C(Nc1ccc(CN2CCOCC2)cc1)c1ccc(-c2ccc(Br)cc2)o1` : 5.32

pIC50 in this record for `CC(=O)c1ccc(NC(=O)CSc2nc(-c3ccccc3Cl)ns2)cc1` : < 4.49

pIC50 in this record for `CCN(CC)c1cc(C)c2cc(NC(=O)c3cccc(OC)c3)ccc2n1` : 4.81

pIC50 in this record for `CCCc1c(C)nc2ccccc2c1O` : < 4.49

pIC50 in this record for `c1ccc2c(NCCc3c[nH]c4ccccc34)c3ccccc3nc2c1` : 5.40

pIC50 in this record for `Cc1ccc(-c2nc3ccccc3o2)cc1NCc1cc(Cc2ccccc2)ccc1O` : < 4.49

pIC50 in this record for `O=C(Nc1ccccc1O)c1ccc(Oc2cccc(C(=O)Nc3ccccc3O)c2)cc1` : < 4.49

pIC50 in this record for `CCCN(CCC)CCCNC(=O)c1cc2c(-c3ccc(OC)c(OC)c3)nn(C)c2s1` : < 4.49

pIC50 in this record for `CN(C)c1ccc(N=Cc2ccc(N3CCOCC3)cc2)cc1` : < 4.49

pIC50 in this record for COc1ccc(N2CCN(C(CNC(=O)C3CCCCC3)c3ccc4c(c3)OCO4)CC2)cc1 (stereo not given) : < 4.49

pIC50 in this record for `COc1ccc(-c2nc3cc(Cc4ccc5[nH]c(-c6ccc(OC)cc6)nc5c4)ccc3[nH]2)cc1` : 5.32

pIC50 in this record for `Cc1sc2ncnc(Sc3nc4ccccc4[nH]3)c2c1C` : < 4.49

pIC50 in this record for `COc1cc(C(=O)Nc2ccc(-c3nc4ccccc4[nH]3)cc2)cc(OC)c1OC` : < 4.49

pIC50 in this record for `CCOC(=O)c1c(NC(=O)c2ccccc2)sc2c(O)c(CN(CC)CC)ccc12` : < 4.49

pIC50 in this record for `COc1ccccc1NC1=C(N2CCCCC2)C(=O)c2ccccc2C1=O` : 5.01

pIC50 in this record for CC(O)(c1ccc(Cl)cc1)C(CN1CCCCC1)c1ccccc1 (stereo not given) : < 4.49

pIC50 in this record for `Cc1cc(C=C2SC(=Nc3ccccc3)N(C3CCCC3)C2=O)c(C)n1-c1ccc(Cl)cc1` : < 4.49

pIC50 in this record for COc1ccc(C(O)(CCC(C)C)C(CN2CCOCC2)c2ccc(Cl)cc2)cc1 (stereo not given) : 4.97

pIC50 in this record for COc1ccc2c(c1)OC(O)(C(F)(F)C(F)(F)F)CC2=O (stereo not given) : 4.59

pIC50 in this record for `CCOc1ccc(-c2nc(NC(=O)c3cccc(S(C)(=O)=O)c3)sc2C)cc1` : < 4.49

pIC50 in this record for `COc1ccc2nc(N)nc(C)c2c1` : < 4.49

pIC50 in this record for `COc1ccc(CN2CCN(Cc3ccccc3)CC2)c(O)c1` : < 4.49

pIC50 in this record for `CN1CCN(c2c3c(c(C#N)c4nc5ccccc5n24)CCC3)CC1` : < 4.49

pIC50 in this record for `CCN1CCN(Cc2ccc(NC(=O)c3cc4ccc5cccnc5c4[nH]3)cc2)CC1` : 5.07

pIC50 in this record for `Cc1cc(C)c2nc(N3CCC(C(=O)NCCCN4CCC(N5CCCCC5)CC4)CC3)sc2c1` : 5.37
